Target: CD8 alpha (CD8a) extracellular domain (Homo sapiens, UniProt P01732 P01732:22-182)
Sequence (P01732 22-182, one chain of several): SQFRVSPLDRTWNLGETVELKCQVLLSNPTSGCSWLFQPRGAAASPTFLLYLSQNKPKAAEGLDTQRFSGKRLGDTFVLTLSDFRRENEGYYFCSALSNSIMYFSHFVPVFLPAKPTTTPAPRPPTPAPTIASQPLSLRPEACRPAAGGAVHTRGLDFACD
Assay: BLI; 25 C, 5.5 mM Mg, tRNA, BSA, 0.01% tween-20
Conditions: tags: Sino Biological; label: 5'-FAM (cells); biotin (BLI)
measuredEndpoint: pKd
As a rule, pKd stands for the negative log10 of the concentration, concentration in M.

[ask] Sample A1 (ssDNA) DNA: ATCCAGAGTGACGCAGCACGCAGCACCCGTGGTAGTGTATCAGGGAGACACTACGTGATGCAGCTTGAAATGGACACGGTGGCTTAGT — what was its pKd?
[reply] 7.70
